assay system: Cellular tumor antigen p53 (Homo sapiens) (UniProt P04637)
Sequence (P04637 whole entry, looked up): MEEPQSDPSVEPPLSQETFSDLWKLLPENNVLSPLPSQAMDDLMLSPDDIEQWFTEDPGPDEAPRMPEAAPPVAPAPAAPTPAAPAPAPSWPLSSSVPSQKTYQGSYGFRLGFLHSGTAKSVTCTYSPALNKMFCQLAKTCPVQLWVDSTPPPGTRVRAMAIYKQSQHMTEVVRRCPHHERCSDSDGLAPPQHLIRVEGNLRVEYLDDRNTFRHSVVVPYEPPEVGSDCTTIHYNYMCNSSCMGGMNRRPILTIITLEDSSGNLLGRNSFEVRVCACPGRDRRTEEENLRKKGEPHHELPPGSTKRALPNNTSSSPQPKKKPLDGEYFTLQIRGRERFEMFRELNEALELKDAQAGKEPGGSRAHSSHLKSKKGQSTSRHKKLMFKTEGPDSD
procedure text: nuclear p53 accumulation, HPV+ cells – imaging, p53-positive nuclei imaging, 24 h, 48 h (AID 1508601)
assay conditions: 24/48 h, measured here: p53 positive nuclei at 24 h, Library stock concentration: 2 mM, stronger effect = higher value
The whole screen tested about 5,700 compounds, of which about 85 (1%) were called active. The list comes from a sample in which actives are over-represented; it also holds close analogues and randomly drawn compounds.

compound	p53-positive nuclei, normalised / %
COC(=O)C=CC(=O)N(O)CCCCNCc1ccc(COC(=O)Nc2cccc3ccccc23)cc1	-0.0278
CCN1CCN(Cc2ccc(NC(=O)c3ccc(C)c(Oc4ccnc5[nH]ccc45)c3)cc2C(F)(F)F)CC1	-0.102
CCCCN(Cc1ccc(C(=O)NO)cc1)C(=O)Nc1ccccc1	0.226
COC(=O)N1C(=O)[C@](c2ccccc2)(C2CCCC2)N1C(=O)OC	0.165
O=Nc1c(-c2c(O)[nH]c3cc(Br)ccc23)[nH]c2ccccc12	1.14
OCCCNc1cc(-c2ccnc(Nc3cccc(Cl)c3)n2)ccn1	2.24
CN1CCC(c2c(O)cc(O)c3c(=O)cc(-c4ccccc4Cl)oc23)C1CO (stereo not given)	3.25
NC(=O)c1ccc(-c2nc(-c3ccc4c(c3)OCCO4)c(-c3ccccn3)[nH]2)cc1	-0.00675
CN1CCN(c2ccc(Nc3c4ccccc4nc4ccccc34)cc2)CC1	13.1
Nc1ncn([C@@H]2O[C@@H](CO)[C@H](O)[C@@H]2O)c(=O)n1	0.0304
COc1ccc(Cn2ccc3ccc(C(=O)NO)cc32)cc1	0.00889
CC(CCC(=O)O)C1CC[C@H]2[C@@H]3C(O)C[C@@H]4CC(O)CC[C@]4(C)[C@@H]3CC[C@]12C (stereo not given in full)	-0.106
O=Nc1c(O)[nH]c2c(Cl)c(Cl)ccc12	2.93
OCc1c[nH]c2ccccc12	0.151
CN1CC[C@H](c2c(O)cc(O)c3c(=O)cc(-c4ccccc4Cl)oc23)C(O)C1 (stereo not given in full)	0.196

----------
assay system: Cellular tumor antigen p53 (Homo sapiens)
procedure text: nuclear p53 accumulation, HPV+ cells – imaging, p53-positive nuclei imaging, 24 h, 48 h (AID 1508601)
assay conditions: 24/48 h, measured here: p53 positive nuclei at 24 h, Library stock concentration: 500 nM, stronger effect = higher value
Out of some 5,700 compounds screened, about 85 (1%) were called active. The full list was thinned out, with actives kept by preference.
parameter measured: p53-positive nuclei, normalised (%)

compound	assay system	endpoint value
OCC1OC(n2cnc3c2NC=NCC3O)CC1O (centres undefined)	Cellular tumor antigen p53 (Homo sapiens)	-0.0351
COc1ccc(N2C(=O)C(=Cc3ccc([N+](=O)[O-])s3)SC2=S)cc1	Cellular tumor antigen p53 (Homo sapiens)	-0.0612
Nc1ccn(C2C=C(CO)C(O)C2O)c(=O)n1 (centres undefined)	Cellular tumor antigen p53 (Homo sapiens)	0.0935
CC(=O)OC1C(=O)[C@]2(C)C(O)CC3OC[C@@]3(OC(C)=O)C2C(OC(=O)c2ccccc2)[C@]2(O)CC(OC(=O)C(O)C(NC(=O)c3ccccc3)c3ccccc3)C(C)=C1C2(C)C (some centres undefined)	Cellular tumor antigen p53 (Homo sapiens)	-0.0449
CN(C)CCC(CSc1ccccc1)Nc1ccc(S(=O)(=O)NC(=O)c2ccc(N3CCN(Cc4ccccc4-c4ccc(Cl)cc4)CC3)cc2)cc1[N+](=O)[O-] (centres undefined)	Cellular tumor antigen p53 (Homo sapiens)	0.154
Nc1ccn(C2OC(CO)C(O)C2F)c(=O)n1 (centres undefined)	Cellular tumor antigen p53 (Homo sapiens)	-0.0685
CN(NC(=O)CC(=O)NN(C)C(=S)c1ccccc1)C(=S)c1ccccc1	Cellular tumor antigen p53 (Homo sapiens)	-0.0555
N#CSc1cc(SC#N)c(N)nc1N	Cellular tumor antigen p53 (Homo sapiens)	0.00877
OC(c1cc(C(F)(F)F)nc2c(C(F)(F)F)cccc12)[C@H]1CCCCN1 (some centres undefined)	Cellular tumor antigen p53 (Homo sapiens)	0.0755

----------
procedure text: nuclear p53 accumulation, HPV+ cells – imaging, p53-positive nuclei imaging, 24 h, 48 h (AID 1508601)
assay conditions: 24/48 h, measured here: cell number at 48 h, Library stock concentration: 46 uM
Hit rate of the full screen: of about 5,700 compounds, about 85 (1%) were called active. The sample holds actives, similar compounds and a random draw of the others, so the mix is not that of the screen.

molecule	nuclei count, normalised
CCCCCc1ccc(C=CC(=O)Nc2ccccc2C(=O)O)cc1	113%
CCN(CC)c1ccc(C=NNC(=O)c2ccc(O)cc2)cc1	116%
C#CCOc1ccc2c(c1)c(-c1ccc(C(C)C)cc1)nc(=O)n2C(C)C	101%
Cc1cc(OCCCS(C)(=O)=O)cc(C)c1-c1cccc(COc2ccc3c(c2)OCC3CC(=O)O)c1 (stereo unspecified)	105%
Cc1ccc(B(O)O)cc1	109%
O=C1NCCSc2c1sc1ccc(O)cc21	110%

----------
assay system: Cellular tumor antigen p53 (Homo sapiens)
procedure text: nuclear p53 accumulation, HPV+ cells – imaging, p53-positive nuclei imaging, 24 h, 48 h (AID 1508601)
assay conditions: 24/48 h, measured here: p53 positive nuclei at 24 h, Library stock concentration: 46 uM, stronger effect = higher value
Out of some 5,700 compounds screened, about 85 (1%) were called active. The sample as a whole holds a higher share of actives than the screen did.

molecule	unit label	p53-positive nuclei, normalised
O=C1NCCSc2c1sc1ccc(O)cc21	%	0.0309
C#CCOc1ccc2c(c1)c(-c1ccc(C(C)C)cc1)nc(=O)n2C(C)C	%	-0.153
Cc1ccc(B(O)O)cc1	%	-0.0986
Cc1cc(C)c(N(Cc2ccccc2)S(=O)(=O)c2ccc(OCCNC(=O)c3cc4ccccc4o3)cc2)c(C(=O)NO)c1	%	-0.21
Cc1cc(OCc2nnc(SC3CCCC3)n2-c2cccnc2)ccc1-c1ccc(S(C)(=O)=O)cc1	%	-0.152
COC(=O)C(NC(=O)c1cc(-c2ccccc2)nc2ccccc12)c1ccccc1 (stereo not given)	%	-0.21
O=C(O)CCCCCCCCCCCNC(=O)NC12CC3CC(CC(C3)C1)C2	%	-0.135
O=C1CC(c2ccc([N+](=O)[O-])cc2)=NN1c1ccccc1	%	-0.0266
CCOC(=O)NC1CCC2C(C1)CC1C(=O)OC(C)C1C2C=Cc1ccc(-c2cccc(F)c2)cn1 (stereo not given)	%	-0.0891
CCCCCCCCc1cccc(NC(=O)C(N)COP(=O)(O)O)c1 (stereo not given)	%	0.0125

----------
assay system: Cellular tumor antigen p53 (Homo sapiens)
procedure text: nuclear p53 accumulation, HPV+ cells – imaging, p53-positive nuclei imaging, 24 h, 48 h (AID 1508601)
assay conditions: 24/48 h, Library stock concentration: 278 uM
Hit rate of the full screen: of about 5,700 compounds, about 85 (1%) were called active. Cut-off read from the data, not from the text of the source: active = p53-positive nuclei above about 36% (passing the limit was not always enough); inactive = the rest. Shown is part of a subset that was picked to be rich in actives. Peptide text beside a SMILES is read from it. * marks the point of attachment. Cbz = O=C(OCc1ccccc1)*
Outcome codes: active, inactive

compound	discrete label
O=C1CN2Cc3c(ccc(Cl)c3Cl)N=C2N1	active
O=C1CC(c2ccc([N+](=O)[O-])cc2)=NN1c1ccccc1	inactive
CCCCCc1ccc(C=CC(=O)Nc2ccccc2C(=O)O)cc1	inactive
CN(CCC(Oc1ccc(-c2ccccc2)cc1)c1ccc(F)cc1)CC(=O)O (centres undefined)	inactive
Cc1cc(C)c(N(Cc2ccccc2)S(=O)(=O)c2ccc(OCCNC(=O)c3cc4ccccc4o3)cc2)c(C(=O)NO)c1	inactive
Cc1cc(OCc2nnc(SC3CCCC3)n2-c2cccnc2)ccc1-c1ccc(S(C)(=O)=O)cc1	inactive
Cc1cc(OCCCS(C)(=O)=O)cc(C)c1-c1cccc(COc2ccc3c(c2)OCC3CC(=O)O)c1 (centres undefined)	inactive
COc1ccc(CC(NC(=O)C(C)NC(=O)CN2CCOCC2)C(=O)NC(Cc2ccccc2)C(=O)[C@@]2(C)CO2)cc1 (some centres undefined)	inactive
Cc1nc(Nc2n[nH]c3c2CN(C(=O)NC(CN(C)C)c2ccccc2)C3(C)C)c2sccc2n1 (centres undefined)	inactive
CCOC(=O)NC1CCC2C(C1)CC1C(=O)OC(C)C1C2C=Cc1ccc(-c2cccc(F)c2)cn1 (centres undefined)	inactive
C#CCOc1ccc2c(c1)c(-c1ccc(C(C)C)cc1)nc(=O)n2C(C)C	inactive
CS(=O)(=O)N1CCN(Cc2cc3nc(-c4cccc5[nH]ncc45)nc(N4CCOCC4)c3s2)CC1	inactive
COc1cc(OC)c2c(=O)[nH]c(-c3cc(C)c(OCCO)c(C)c3)nc2c1	inactive
CC(C)CC(C=O)NC(=O)C(CC(C)C)NC(=O)C(CC(C)C)NC(=O)OCc1ccccc1 (stereo not drawn) (Cbz-Leu-Leu-Leu-aldehyde; configuration not given here)	inactive

----------
procedure text: nuclear p53 accumulation, HPV+ cells – imaging, p53-positive nuclei imaging, 24 h, 48 h (AID 1508601)
assay conditions: 24/48 h, measured here: cell number at 24 h, Library stock concentration: 3.33 mM
Hit rate of the full screen: of about 5,700 compounds, about 85 (1%) were called active. Many of the other results were omitted from the sample, so actives are more common in it than they were.
parameter measured: nuclei count, normalised (%)

molecule	parameter measured	endpoint value
CCC(C)C(NC(=O)C(CCC(=O)O)NC(=O)C(CC(C)C)NC(=O)C1CN=C(C(N)C(C)C)S1)C(=O)NC1CCCCNC(=O)C(CC(N)=O)NC(=O)C(CC(=O)O)NC(=O)C(Cc2cnc[nH]2)NC(=O)C(Cc2ccccc2)NC(=O)C(C(C)CC)NC(=O)C(CCCN)NC1=O (stereo not drawn)	nuclei count, normalised	97.5
O=C(C=Cc1ccc(CN(CCO)CCc2c[nH]c3ccccc23)cc1)NO	nuclei count, normalised	37.8
N#CSc1cc(SC#N)c(N)nc1N	nuclei count, normalised	97.4
OCc1c[nH]c2ccccc12	nuclei count, normalised	121
Cc1cc(OCCCS(C)(=O)=O)cc(C)c1-c1cccc(COc2ccc3c(c2)OCC3CC(=O)O)c1 (stereo not drawn)	nuclei count, normalised	125
COc1cccc2c1C(=O)c1c(O)c3c(c(O)c1C2=O)C[C@@](O)(C(=O)CO)C[C@@H]3OC1CC(N)C(OC2CCCCO2)C(C)O1 (stereo partly drawn)	nuclei count, normalised	43.4
COc1ccc(F)c(F)c1C(=O)c1cnc(NC2CCN(S(C)(=O)=O)CC2)nc1N	nuclei count, normalised	43.7
Cc1ccc([N+](=O)[O-])cc1S(=O)(=O)N(C)N=Cc1cnc2ccc(Br)cn12	nuclei count, normalised	17.7
OC(c1cc(C(F)(F)F)nc2c(C(F)(F)F)cccc12)[C@H]1CCCCN1 (stereo partly drawn)	nuclei count, normalised	95.3
COc1cc(C(=O)NS(=O)(=O)c2ccccc2C)ccc1Cc1cn(C)c2ccc(NC(=O)OC3CCCC3)cc12	nuclei count, normalised	103
C[C@]12CC[C@H]3c4ccc(O)cc4CC[C@H]3[C@@H]1CCC2=O	nuclei count, normalised	111
N=c1ccn2c(n1)OC1C(O)C(CO)OC12 (stereo not drawn)	nuclei count, normalised	61.4
CC(C)CC(NC(=O)C(Cc1ccccc1)NC(=O)c1cnccn1)B(O)O (stereo not drawn)	nuclei count, normalised	47.9
CC1(C)OC2C[C@H]3[C@@H]4CCC5=CC(=O)CC[C@]5(C)[C@]4(F)C(O)C[C@]3(C)[C@@]2(C(=O)CCl)O1 (stereo partly drawn)	nuclei count, normalised	80.9
O=C(NN=Cc1ccc(O)c(O)c1)c1cc2ccccc2cc1O	nuclei count, normalised	108
C=CC(=O)Nc1cccc(Oc2nc(Nc3ccc(N4CCN(C)CC4)cc3)ncc2Cl)c1	nuclei count, normalised	64.1
Cc1c(CN2CCN(C(=O)C(C)O)CC2)sc2c(N3CCOCC3)nc(-c3cnc(N)nc3)nc12 (stereo not drawn)	nuclei count, normalised	82.6
C#C[C@@]1(O)CC[C@H]2[C@@H]3CCc4cc(O)ccc4[C@@H]3CC[C@@]21C	nuclei count, normalised	80.8
CC1CCO[C@H]2Cn3cc(C(=O)NCc4ccc(F)cc4F)c(=O)c(O)c3C(=O)N12 (stereo partly drawn)	nuclei count, normalised	106
CCN(CC)C(=O)[C@]1(c2ccccc2)CC1CN (stereo partly drawn)	nuclei count, normalised	107
O=C(Nc1ccccc1Br)NC1CCN(c2ccc(C(F)(F)F)cn2)C1 (stereo not drawn)	nuclei count, normalised	102
O=C(C=Cn1cnc(-c2cc(C(F)(F)F)cc(C(F)(F)F)c2)n1)N1CC(F)(F)C1	nuclei count, normalised	66.2
Cn1cc(CNCC2CCN(c3ncc(C(=O)NO)cn3)CC2)c2ccccc21	nuclei count, normalised	36.3
